# Tested on: CDK7;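 further: KINOMEscan kinase panel screen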
# particulars: concentration: 1 μM, replicates: in singlicate; n = 1
Here the recorded %Inh is given for each entry.
readout_type: %Inh (%)

{"smiles_entry": "NC(=O)c1nnc2ccccc2c1N", "target_entity": "CDK7", "reported_value": 14}
{"smiles_entry": "Cc1cc(N2Cc3ccccc3C2)nc(Nc2ccc(S(=O)(=O)N3CCOCC3)cc2)n1.Cl", "target_entity": "CDK7", "reported_value": 0}
{"smiles_entry": "COc1ccccc1CNC(=O)c1cc(C(=O)c2ccccc2C)c[nH]1", "target_entity": "CDK7", "reported_value": 0}
{"smiles_entry": "Clc1cc(Cl)cc(Nc2ccnc(Nc3cc(Cl)cc(Cl)c3)n2)c1", "target_entity": "CDK7", "reported_value": 5}
{"smiles_entry": "Cc1cccc(-c2nc(Nc3ccc4[nH]ncc4c3)c3ccccc3n2)n1", "target_entity": "CDK7", "reported_value": 8}
{"smiles_entry": "Cn1ccc2ncnc(Oc3ccc(Nc4nc5ccccc5[nH]4)cc3)c21", "target_entity": "CDK7", "reported_value": 0}
{"smiles_entry": "COc1ccccc1-c1ccc2c(NC(=O)C3CC3)n[nH]c2n1", "target_entity": "CDK7", "reported_value": 0}
{"smiles_entry": "CN1C(=O)C(Nc2ccc(Cl)c(C(=O)O)c2)=C(c2ccc(Cl)cc2)C1=O", "target_entity": "CDK7", "reported_value": 0}
{"smiles_entry": "Cc1cc(NCC(c2ccccc2)c2ccccc2)nc(NCc2ccc(C(F)(F)F)cc2)n1", "target_entity": "CDK7", "reported_value": 0}
